System: NCI/ADR-RES ovarian
test-details: NCI tumour cell line growth inhibition, 48 h
# key: entry, value: TGI
readout-label: TGI

• CCCCNC(=S)/N=C/c1c(O)c2ccccc2[nH]c1=O = > 10 µM
• CCN(CC)CCN(C(=O)c1ccc(F)cc1)c1ccccc1N = > 10 µM
• O=C(Nc1ccc(Cl)c(Cl)c1)OCCN1c2ccccc2Sc2ccccc21 = > 10 µM

====

Tested on: MDA-MB-435
test-details: NCI tumour cell line growth inhibition, 48 h
readout-label: TGI

* CC(Br)C(=O)Nc1ccc(C(=O)O)c(O)c1 (centres undefined) | > 100 µM
* CCCCNC(=S)/N=C/c1c(O)c2ccccc2[nH]c1=O | > 10 µM
* CC1=NN=C(N)NC1=CC(Sc1ccc(Cl)cc1)c1c(O)ccc2ccccc12 (centres undefined) | > 86.6 µM
* Cc1cccc2c(=O)c3cccc([C@@H](C)C(=O)O)c3oc12 | > 100 µM
* Cc1c(Sc2ccccc2)[n+](=O)c2cc(Cl)c(Cl)cc2n1[O-] | > 100 µM
* CCc1nc(N)nc(N)c1-c1ccc(Cl)c(N=CN(C)C)c1 | > 100 µM
* O=c1oc2ccc([N+](=O)[O-])cc2c(Nc2ccc3c(c2)S(=O)(=O)c2ccccc2O3)c1[N+](=O)[O-] | > 100 µM
* c1ccc(CC2(c3cc4ccccc4[nH]3)OCCO2)nc1 | > 100 µM
* CCOC(=O)c1c(C)c(C)n2c1NC(=O)C2 | > 100 µM
* CCOP(=O)(OCC)/C(C#N)=C/c1c[nH]c2ccccc12 | > 100 µM
* C=CS(=O)(=O)CCN1CC1 | > 10 µM
* CN1C(Cl)=NS(=O)(=O)c2ccccc21 | > 100 µM
* CC(=O)OCC(Br)C1(C)CCC(C(C)(C)Br)O1 (centres undefined) | > 100 µM
* Cn1cnc([N+](=O)[O-])c1Sc1ncn[nH]1 | > 100 µM
* CN1C(=O)C2C=C3CCCCC3=CC2N(C)C1=O (centres undefined) | > 100 µM
* N#Cc1sc2c(c1O)c(=O)n(-c1ccccc1)c(=S)n2-c1ccccc1 | > 100 µM
* CNC(=O)OCC1C2=C(C(=O)C(C)=C(N)C2=O)N2CC3C(N3C)C12OC (centres undefined) | > 100 µM
* CC(C)CCN[C@@H]1CCc2cc(O)c(N3CC(=O)NS3(=O)=O)c(F)c2C1 | > 100 µM
* CN(C)Cc1cc(C(C)(C)C)cc(C2CCCCC2)c1O | 36.6 µM
* CCN(CC)CCSCCCNc1c2ccc(Cl)cc2nc2ccc(OC)cc12 | 2.89 µM
* CC1(C)O[C@@H](CBr)C[C@H](C[C@H]2C[C@@H](O)C[C@@H](CCOCc3ccccc3)O2)O1 | 55.6 µM
* NCCSCCc1ccccc1 | > 100 µM
* FC1=C2CCCCCC2SC1(F)F (centres undefined) | 70.7 µM
* Clc1nc(Cl)c2ncn(Cc3ccc(Cn4cnc5c(Cl)nc(Cl)nc54)cc3)c2n1 | 33.6 µM
* O=C(Nc1ccc(I)cc1F)c1cc(Cl)ccc1O | 4.9 µM
* CO[C@H]1CC(c2ccc[nH]2)=N[C@]12O[C@@H](C)C[C@@H]1CCCCCCCc3ccc([nH]3)[C@H]12 | 4.29 µM
* O=C1NC2(CCN(CCCC3(c4ccc(F)cc4)OCCO3)CC2)Oc2ccccc21 | > 100 µM
* COc1ccc(CCNCCCC2c3ccccc3-c3ccccc32)cc1OC | 28.3 µM
* [Cl][Cd][Cl] | 30.9 µM
* CC(=O)ON(C(C)=O)c1ccc(-c2nc3ccccc3s2)cc1C | > 100 µM
* CN(/N=N/c1nc(OCc2ccccc2)c2[nH]cnc2n1)C(=O)Oc1ccc([N+](=O)[O-])cc1 | 39.8 µM
* Cc1ccc2c(=O)cc(-c3sc4ccccc4c3C)[nH]c2n1 | 17.8 µM
* Cc1ccc(-c2nc(N3CCCNCC3)c3oc(-c4ccc(C)cc4)nc3n2)cc1 | 3.17 µM
* CC1OC(OC2C(Oc3cc(O)c4c(c3)O[C@H](c3ccc(O)cc3)CC4=O)OC(CO)C(O)C2O)C(O)C(O)C1O (some centres undefined) | > 100 µM

All values here come from PubChem BioAssay (NCI).
